System: CYP isozymes (IC50s averaged over the isozymes)
test: CYP Enzymatic Inhibition Assay in human liver microsomes
readout-name: IC50 at 10 min (µM)
Could you give me the number in µM? Just the number is fine.

Return value of IC50 at 10 min for input Cc1nc2c(F)cc(-c3nc(Nc4ccc(CN5CCO[C@](C)(C[C@H](C)N(C)C)C5)cn4)ncc3F)cc2n1C(C)C , no commentary. 25.8

Return value of IC50 at 10 min for input COC1(C)CN(CC[C@]2(C)CN(Cc3ccc(Nc4ncc(F)c(-c5cc(F)c6nc(C)n(C(C)C)c6c5)n4)nc3)CCO2)C1 , no commentary. 26.8

Return value of IC50 at 10 min for input Cc1nc2c(F)cc(-c3nc(Nc4ccc(CN5CC6(C5)CS(=O)(=O)C6)cn4)ncc3F)cc2n1C(C)C , no commentary. 33.9

Return value of IC50 at 10 min for input CC(=O)c1c(C)c2cnc(Nc3ccc(N4CCNCC4)cn3)nc2n(C2CCCC2)c1=O [Palbociclib, reference compound] , no commentary. 97.7
